- TARGET_OR_SYSTEM: hmGluR1 receptor (Homo sapiens)
- Construct: expressed in transfected cells
- Sequence (Q13255 19-1194): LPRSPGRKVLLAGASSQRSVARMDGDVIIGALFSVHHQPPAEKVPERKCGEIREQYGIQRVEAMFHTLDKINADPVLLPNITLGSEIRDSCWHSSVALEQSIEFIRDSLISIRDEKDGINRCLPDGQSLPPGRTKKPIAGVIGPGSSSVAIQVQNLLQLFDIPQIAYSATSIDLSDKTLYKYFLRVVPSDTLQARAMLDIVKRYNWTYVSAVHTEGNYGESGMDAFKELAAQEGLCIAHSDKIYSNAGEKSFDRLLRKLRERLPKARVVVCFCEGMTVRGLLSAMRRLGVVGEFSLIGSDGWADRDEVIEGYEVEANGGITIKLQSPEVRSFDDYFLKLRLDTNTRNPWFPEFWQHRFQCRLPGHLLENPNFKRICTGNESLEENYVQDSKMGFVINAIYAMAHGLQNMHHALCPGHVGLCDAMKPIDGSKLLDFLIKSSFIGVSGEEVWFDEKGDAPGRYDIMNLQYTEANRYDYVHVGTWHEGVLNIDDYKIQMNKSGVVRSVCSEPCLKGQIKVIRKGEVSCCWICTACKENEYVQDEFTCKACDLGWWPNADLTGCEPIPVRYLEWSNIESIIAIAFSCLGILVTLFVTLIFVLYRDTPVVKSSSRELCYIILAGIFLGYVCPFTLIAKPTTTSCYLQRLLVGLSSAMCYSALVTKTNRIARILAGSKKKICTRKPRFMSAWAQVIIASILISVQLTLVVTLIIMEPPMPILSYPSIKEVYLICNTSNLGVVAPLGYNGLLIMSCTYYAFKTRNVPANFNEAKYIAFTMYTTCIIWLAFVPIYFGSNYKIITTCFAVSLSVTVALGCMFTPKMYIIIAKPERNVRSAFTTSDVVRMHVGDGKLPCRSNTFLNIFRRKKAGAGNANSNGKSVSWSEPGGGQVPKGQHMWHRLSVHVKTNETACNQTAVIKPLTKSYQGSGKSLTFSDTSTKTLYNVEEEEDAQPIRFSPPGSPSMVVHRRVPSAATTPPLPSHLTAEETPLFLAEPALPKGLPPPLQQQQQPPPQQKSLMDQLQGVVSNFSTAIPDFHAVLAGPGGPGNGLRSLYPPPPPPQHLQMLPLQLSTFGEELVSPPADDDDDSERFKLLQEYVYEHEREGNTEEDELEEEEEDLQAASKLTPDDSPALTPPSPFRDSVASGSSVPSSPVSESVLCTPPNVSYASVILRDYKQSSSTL
- ASSAY_PROTOCOL: IC50 determination: intracellular calcium mobilization (FLIPR) upon Quisqualate stimulation in CHO cells stably expressing hmGluR1
- Format: cell-based
- PROTOCOL_CONDITIONS: against Quisqualate 1 μM (EC80), FLIPR calcium mobilization, read-out: IC50 Class
ENDPOINT_NAME: IC50

Guide cases for IC50, answers given:
Qu. I am curious: what IC50 value has been reported for Cc1ccc(-n2cnc3c(sc4nccc(NC5CCC5)c43)c2=O)cc1 [28DA] ?
Ans. 150 to 1000 nM

Qu. For COc1ccc(-n2cnc3c(sc4nccc(NCCC(C)O)c43)c2=O)cc1 (centres unmarked) [28HP] then?
Ans. < 50 nM

Qu. Now this one: O=c1c2sc3ncnc(Nc4ccccc4)c3c2ncn1-c1ccc2c(c1)OCO2 [95GG]
Ans. > 1000 nM

---
Qu. Can you look up the measured IC50 of CN(C)c1cccc2sc3c(=O)n(-c4cccc(Cl)c4Cl)cnc3c12 [103I] for me?
Ans. > 1000 nM

Qu. Same for C=C(Cl)CNc1ccnc2sc3c(=O)n(-c4ccc(C)cc4)cnc3c12 [28EY]
Ans. < 50 nM

###

- TARGET_OR_SYSTEM: hmGluR1 receptor (Homo sapiens)
- Construct: expressed in transfected cells
- ASSAY_PROTOCOL: IC50 determination: intracellular calcium mobilization (FLIPR) upon Quisqualate stimulation in CHO cells stably expressing hmGluR1
- Type: cell-based
- PROTOCOL_CONDITIONS: against Quisqualate 1 μM (EC80), class symbols, read-out: mGIuR 1 IC50
Quick reference for IC50 among some compounds

Worked cases, IC50 given:
Qu. IC50 lookup needed for Cc1ccc(-n2c(C)nc3c(sc4nccc(NCCO)c43)c2=O)cc1 [113N] , thanks.
Ans. 50 to 150 nM

Qu. Proceed to Cc1ccc(-n2cnc3c(sc4nccc(NCCO)c43)c2=O)cc1 [28AV]
Ans. < 50 nM

Qu. Subsequent entry: CN(C)c1ccnc2sc3c(=O)n(NC4CCCCC4)cnc3c12 [60G]
Ans. < 50 nM

New cases:
Qu. What value of measured IC50 is listed for CCNc1ccnc2sc3c(=O)n(-c4ccc5ncsc5c4)cnc3c12 [131C] ?
Ans. < 50 nM

Qu. Try CCCN(C)c1ccnc2sc3c(=O)n(-c4ccc(C)cc4)cnc3c12 [28AT] next.
Ans. < 50 nM

Qu. Entry CN(C)c1ccnc2sc3c(=O)n(-c4nncs4)cnc3c12 [15X] please
Ans. > 1000 nM

Qu. Same for CC(=O)Oc1ccc(-n2cnc3c(sc4nccc(N(C)C)c43)c2=O)cc1 [compound 138]
Ans. < 50 nM

Qu. Can you handle COc1ccc(-n2cnc3c(sc4nccc(NCC5CC5)c43)c2=O)cc1 [28AX] next?
Ans. 150 to 1000 nM

###

- TARGET_OR_SYSTEM: hmGluR1 receptor (Homo sapiens)
- Construct: expressed in transfected cells
- ASSAY_PROTOCOL: IC50 determination: intracellular calcium mobilization (FLIPR) upon Quisqualate stimulation in CHO cells stably expressing hmGluR1
- Format: cell-based
- PROTOCOL_CONDITIONS: against Quisqualate 1 μM (EC80), FLIPR calcium mobilization, read-out: IC50 Class
pIC50: −log10 of the molar value.
compounds and their reported pIC50

Qu. Notebook entry, hmGluR1 receptor (Homo sapiens) assay: pIC50 of O=c1c2sc3nccc(NC4CC4)c3c2ncn1-c1ccc2c(c1)OCCO2 [28CK] = ?
Ans. > 7.30
